Each recorded value in this set is attributed to patent US9376700B2.

# target: UniProt P0A8P1
# assay.text: LysAlaAcm ligation assay: AaT-catalyzed transfer from aminoacyl adenosine donor to LysAlaAcm, HPLC at 325 nm
# Format: biochemical
# Design: made in house; host or cells: E. coli BL21-Gold (DE3), plasmid pEG6, Ni-NTA purified
# condition.details: reactions analyzed after 4 h
measured.parameter: Transfer to LysAlaAcm by AaT (in words)

1. [N-]=[N+]=N[C@@H](Cc1ccccc1)C(=O)O[C@@H]1[C@H](O)[C@@H](CO)O[C@H]1n1cnc2c(N)ncnc21
poor substrates
2. CC(C)C[C@H](N)C(=O)O[C@@H]1[C@H](O)[C@@H](CO)O[C@H]1n1cnc2c(N)ncnc21
transferred efficiently
3. CC(=O)N[C@@H](Cc1ccccc1)C(=O)O[C@@H]1[C@H](O)[C@@H](CO)O[C@H]1n1cnc2c(N)ncnc21
poor substrates
4. Nc1ncnc2c1ncn2[C@@H]1O[C@H](CO)[C@@H](O)[C@H]1OC(=O)[C@@H](N)Cc1ccccc1
transferred efficiently

====

# target: E. coli aminoacyl transferase (AaT) (Escherichia coli, UniProt P0A8P1)
# Sequence (P0A8P1 whole entry): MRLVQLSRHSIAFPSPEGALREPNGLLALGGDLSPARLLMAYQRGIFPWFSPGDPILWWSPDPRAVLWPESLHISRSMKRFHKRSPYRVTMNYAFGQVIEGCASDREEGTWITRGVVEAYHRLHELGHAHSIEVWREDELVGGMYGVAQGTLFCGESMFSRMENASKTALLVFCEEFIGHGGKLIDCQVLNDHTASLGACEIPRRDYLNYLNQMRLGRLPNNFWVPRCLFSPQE
# assay.text: LysAlaAcm ligation assay: AaT-catalyzed transfer from aminoacyl adenosine donor to LysAlaAcm, HPLC at 325 nm
# Type: biochemical
# Parameters: made in house; host or cells: E. coli BL21-Gold (DE3), plasmid pEG6, Ni-NTA purified
# condition.details: single addition of 1 mM donor, 100 μM LysAlaAcm, 2.26 μM AaT, 37° C., 4 h, no additive
measured.parameter: Ligated Product Yield (%)
# output: bare number, implied unit %

1. [N-]=[N+]=Nc1ccc(C[C@H](N)C(=O)O[C@@H]2[C@H](O)[C@@H](CO)O[C@H]2n2cnc3c(N)ncnc32)cc1
78.5
2. CC(C)SSC[C@H](N)C(=O)O[C@@H]1[C@H](O)[C@@H](CO)O[C@H]1n1cnc2c(N)ncnc21
42.3
3. Nc1ncnc2c1ncn2[C@@H]1O[C@H](CO)[C@@H](O)[C@H]1OC(=O)[C@@H](N)Cc1ccc(C(=O)c2ccccc2)cc1
9.2
4. Nc1ncnc2c1ncn2[C@@H]1O[C@H](CO)[C@@H](O)[C@H]1OC(=O)[C@@H](N)Cc1ccc2ccccc2c1
95.4
5. CSCC[C@H](N)C(=O)O[C@@H]1[C@H](O)[C@@H](CO)O[C@H]1n1cnc2c(N)ncnc21
21.9
6. CC(C)C[C@H](N)C(=O)O[C@@H]1[C@H](O)[C@@H](CO)O[C@H]1n1cnc2c(N)ncnc21
80.4
7. CN[C@@H](Cc1ccccc1)C(=O)O[C@@H]1[C@H](O)[C@@H](CO)O[C@H]1n1cnc2c(N)ncnc21
0.6
8. CSSC[C@H](N)C(=O)O[C@@H]1[C@H](O)[C@@H](CO)O[C@H]1n1cnc2c(N)ncnc21
20.1

Now examine the next entry.
Query (compound): CSSCC[C@H](N)C(=O)O[C@@H]1[C@H](O)[C@@H](CO)O[C@H]1n1cnc2c(N)ncnc21 ; field requested: Ligated Product Yield (%)
27.8

====

# target: E. coli aminoacyl transferase (AaT) (Escherichia coli)
# assay.text: LysAlaAcm ligation assay: AaT-catalyzed transfer from aminoacyl adenosine donor to LysAlaAcm, HPLC at 325 nm
# Format: biochemical
# Parameters: made in house; host or cells: E. coli BL21-Gold (DE3), plasmid pEG6, Ni-NTA purified
# condition.details: single addition of 1 mM donor, 100 μM LysAlaAcm, 2.26 μM AaT, 37° C., 4 h, no additive
measured.parameter: Ligated Product Yield (%)

Here's what some known entries look like.
1. COc1ccc2c(C[C@H](N)C(=O)O[C@@H]3[C@H](O)[C@@H](CO)O[C@H]3n3cnc4c(N)ncnc43)cc(=O)oc2c1 [4h]
5h not observed
2. [N-]=[N+]=N[C@@H](Cc1ccccc1)C(=O)O[C@@H]1[C@H](O)[C@@H](CO)O[C@H]1n1cnc2c(N)ncnc21 [4g]
5g not observed^c

Now examine the next entry.
Query (molecule): CC(=O)N[C@@H](Cc1ccccc1)C(=O)O[C@@H]1[C@H](O)[C@@H](CO)O[C@H]1n1cnc2c(N)ncnc21 [4f] ; field requested: Ligated Product Yield (%)
5f not observed
